# STATED_CONDITIONS: male, human, in vivo, 29.8 h
PROPERTY_LABEL: Relative Distribution (%) of radioactivity in extracted fecal homogenate

COMPOUND | EXPERIMENTAL_RESULT
CN(C)c1cc(NC(=O)CNC(C)(C)C)c(O)c2c1C[C@H]1C[C@H]3C(N(C)C)C(O[C@@H]4O[C@H](C(=O)O)[C@@H](O)[C@H](O)[C@H]4O)=C(C(N)=O)C(=O)[C@@]3(O)C(O)=C1C2=O (stereo in doubt) [Metabolite M7, tigecycline glucuronide] | 21.6%
CN(C)c1cc(NC(=O)CNC(C)(C)C)c(O)c2c1C[C@H]1C[C@H]3[C@H](N(C)C)C(O)=C(C(N)=O)C(=O)[C@@]3(O)C(O)=C1C2=O | 39.1%
CC(C)(C)NCC(=O)O [Metabolite M3a, t-butylaminoacetic acid] | 4.1%
CN(C)c1cc(NC(=O)CNC(C)(C)C)c(O)c2c1C[C@H]1C[C@H]3[C@@H](N(C)C)C(O[C@@H]4O[C@H](C(=O)O)[C@@H](O)[C@H](O)[C@H]4O)=C(C(N)=O)C(=O)[C@@]3(O)C(O)=C1C2=O [Metabolite M6, epimer of tigecycline glucuronide] | 6.8%

---

The entries below are paired with their reported Relative Distribution (%) of radioactivity in extracted fecal homogenate.
# STATED_CONDITIONS: male, human, in vivo, 30 h
# Description: An open-label, inpatient, multiple-dose tigecycline, single-dose [^14C]tigecycline metabolic disposition and mass balance study was performed in six healthy male volunteers. The clinical protocol called for twelve subjects. […] Individual fecal sample homogenates, prepared from each fecal sample collected up to 48 hours following the [^14C]-labeled tigecycline dose, that contained greater than 8000 dpm/g were analyzed for metabolite profiles. […] Selected samples were also analyzed by LC/MS. […]
PROPERTY_LABEL: Relative Distribution (%) of radioactivity in extracted fecal homogenate

MOLECULE | EXPERIMENTAL_RESULT
CN(C)c1cc(NC(=O)CNC(C)(C)C)c(O)c2c1C[C@H]1C[C@H]3[C@@H](N(C)C)C(O[C@@H]4O[C@H](C(=O)O)[C@@H](O)[C@H](O)[C@H]4O)=C(C(N)=O)C(=O)[C@@]3(O)C(O)=C1C2=O [Metabolite M6, epimer of tigecycline glucuronide] | 5.6%
CN(C)c1cc(NC(=O)CNC(C)(C)C)c(O)c2c1C[C@H]1C[C@H]3[C@H](N(C)C)C(O)=C(C(N)=O)C(=O)[C@@]3(O)C(O)=C1C2=O | 48.3%
CN(C)c1cc(NC(=O)CNC(C)(C)C)c(O)c2c1C[C@H]1C[C@H]3C(N(C)C)C(O[C@@H]4O[C@H](C(=O)O)[C@@H](O)[C@H](O)[C@H]4O)=C(C(N)=O)C(=O)[C@@]3(O)C(O)=C1C2=O (stereo in doubt) [Metabolite M7, tigecycline glucuronide] | 13.3%
CC(C)(C)NCC(=O)O [Metabolite M3a, t-butylaminoacetic acid] | 5.9%

---

# EXPERIMENT_NOTES: Estimated concentrations in rabbit serum by LC/MS (SRM) after intravenous tigecycline
# Format: in vivo, New Zealand White rabbit
# STATED_CONDITIONS: female, New Zealand White, serum, at 1 hour, 4 mg/kg IV tigecycline

COMPOUND | concentration at 1 h / ng/mL
CN(C)c1cc(NC(=O)CNC(C)(C)C)c(O)c2c1C[C@H]1C[C@H]3[C@H](N(C)C)C(O)=C(C(N)=O)C(=O)[C@@]3(O)C(O)=C1C2=O [Tigecycline] | 2020

---

# STATED_CONDITIONS: male, human, in vivo
A collection of molecules and their measured percent of the fecal radioactivity
PROPERTY_LABEL: percent of the fecal radioactivity

MOLECULE | EXPERIMENTAL_RESULT
CN(C)c1cc(NC(=O)CNC(C)(C)C)c(O)c2c1C[C@H]1C[C@H]3C(N(C)C)C(O[C@@H]4O[C@H](C(=O)O)[C@@H](O)[C@H](O)[C@H]4O)=C(C(N)=O)C(=O)[C@@]3(O)C(O)=C1C2=O (stereo in doubt) [Metabolite M7, tigecycline glucuronide] | 10-26%
CC(C)(C)NCC(=O)O [Metabolite M3a, t-butylaminoacetic acid] | 4-14%
CN(C)c1cc(NC(=O)CNC(C)(C)C)c(O)c2c1C[C@H]1C[C@H]3[C@H](N(C)C)C(O)=C(C(N)=O)C(=O)[C@@]3(O)C(O)=C1C2=O [Tigecycline] | 28-51%

---

# EXPERIMENT_NOTES: Estimated concentrations in rabbit serum by LC/MS (SRM) after intravenous tigecycline
# Type: in vivo, New Zealand White rabbit
# STATED_CONDITIONS: female, New Zealand White, 2 hr after 4 mg/kg IV tigecycline, pooled serum

MOLECULE_SMILES | concentration at 2 h
CN(C)c1cc(NC(=O)CNC(C)(C)C)c(O)c2c1C[C@H]1C[C@H]3[C@H](N(C)C)C(O)=C(C(N)=O)C(=O)[C@@]3(O)C(O)=C1C2=O | 1040 ng/mL

---

# EXPERIMENT_NOTES: Tigecycline metabolites identified in CD-1 mouse serum and urine and rabbit serum samples (LC/MS)
# Format: in vivo
# STATED_CONDITIONS: in vivo, iv
PROPERTY_LABEL: Species and matrix in which identified

COMPOUND | EXPERIMENTAL_RESULT
CN(C)c1cc(NC(=O)CNC(C)(C)C)c(O)c2c1C[C@H]1C[C@H]3C(N(C)C)C(O[C@@H]4O[C@H](C(=O)O)[C@@H](O)[C@H](O)[C@H]4O)=C(C(N)=O)C(=O)[C@@]3(O)C(O)=C1C2=O (stereo in doubt) [Metabolite M7, tigecycline glucuronide] | R-S, M-S, M-U
CC(=O)Nc1cc(N(C)C)c2c(c1O)C(=O)C1=C(O)C3(O)C(=O)C(C(N)=O)=C(O)C(N(C)C)C3CC1C2 (stereo not shown) [Metabolite M9, N-acetyl-9-aminominocycline] | R-S
CN(C)c1cc(NC(=O)CNC(C)(C)C)c(O)c2c1C[C@H]1C[C@H]3[C@@H](N(C)C)C(O[C@@H]4O[C@H](C(=O)O)[C@@H](O)[C@H](O)[C@H]4O)=C(C(N)=O)C(=O)[C@@]3(O)C(O)=C1C2=O [Metabolite M6, epimer of tigecycline glucuronide] | R-S, M-S, M-U
CN(C)c1cc(N)c(O)c2c1C[C@H]1C[C@H]3[C@H](N(C)C)C(=O)C(C(N)=O)=C(O)[C@@]3(O)C(=O)C1=C2O [Metabolite M3, 9-aminominocycline] | R-S, M-S, M-U
